# Test system: NCI-H522
# Assay procedure: NCI tumour cell line growth inhibition, 48 h
Calls of active or inactive are those of the source. Cut-off read from the data, not from the text of the source: active = GI50 up to about 1.1 µM and inactive = higher.
Outcomes: active, inactive

>  <Molecule>
CC(=O)[C@H]1CCC2[C@@H]3CC=C4C(O)C(OS(=O)(=O)O)CC[C@]4(C)C3CC[C@@]21C (stereo partly specified)

>  <Qualitative label>
inactive

$$$$
>  <Molecule>
CC1=NN(C(=O)c2ccccc2O)C(c2ccccc2Cl)C1C(=O)Nc1ccccc1 (stereo unspecified)

>  <Qualitative label>
active

$$$$
>  <Molecule>
N=c1c2c(=S)n(-c3ccccc3)c(=S)n(-c3ccccc3)c2nc(SCCCN2CCCCC2)n1-c1ccccc1

>  <Qualitative label>
inactive

$$$$
>  <Molecule>
O=c1oc2ccccc2cc1-c1csc(Nc2cc(Cl)cc(Cl)c2)n1

>  <Qualitative label>
inactive

$$$$
>  <Molecule>
NC(=O)Cc1nc2c(O)ncnc2n1C1OC(CO)C(O)C1O (stereo unspecified)

>  <Qualitative label>
inactive

$$$$
>  <Molecule>
CCOC(=O)NC(=O)c1cn(CCN2CCN(C(=O)NCCCCCCNC(=O)N3CCN(CCn4cc(C(=O)NC(=O)OCC)c(=O)[nH]c4=O)CC3)CC2)c(=O)[nH]c1=O

>  <Qualitative label>
inactive

$$$$
>  <Molecule>
Cc1ccc(CCC(=O)C(=O)O)s1

>  <Qualitative label>
inactive

$$$$
>  <Molecule>
N#CCC(=O)NC1C2CC3CC(C2)CC1C3 (stereo unspecified)

>  <Qualitative label>
inactive

$$$$
>  <Molecule>
CCCCc1ccc(Nc2nc(Cl)c3c(ncn3COCCOC(C)=O)n2)cc1

>  <Qualitative label>
inactive

$$$$
>  <Molecule>
COC1(OC)C2(Cl)CCC1(Cl)C(OC(C)=O)C2 (stereo unspecified)

>  <Qualitative label>
inactive

$$$$
>  <Molecule>
COC(=O)C1Cc2ccc3c(c2C1=O)CCCC3 (stereo unspecified)

>  <Qualitative label>
inactive

$$$$
>  <Molecule>
C=C(C)C1C/C=C(/C)CCCC2(CCC3=C(CC(C(=C)C)C/C=C(/C)CCC3)O2)C(=O)C1 (stereo unspecified)

>  <Qualitative label>
inactive

$$$$
>  <Molecule>
CCOC(=O)C(C)(Cc1ccc(O)cn1)NC(=O)c1ccccc1 (stereo unspecified)

>  <Qualitative label>
inactive

$$$$
>  <Molecule>
CC1=C(C(=O)Nc2ccccc2)C(c2ccc([N+](=O)[O-])cc2)C(C(=O)Nc2ccccc2)=C(C)N1

>  <Qualitative label>
inactive

$$$$
>  <Molecule>
COc1ccc(C2N(NC(=O)c3ccncc3)C(=O)CS2(=O)=O)cc1F (stereo unspecified)

>  <Qualitative label>
inactive

$$$$
>  <Molecule>
CC(C)OP(=O)(OC(C)C)c1nn(-c2ccc([N+](=O)[O-])cc2)c(=N)s1

>  <Qualitative label>
inactive

$$$$
>  <Molecule>
C=C(C)[C@@]1(O)CCCC[C@@H]1CC(Sc1ccccc1)Sc1ccccc1

>  <Qualitative label>
inactive

$$$$
>  <Molecule>
CC12CCCCC1C(=O)C2(Cl)Cl (stereo unspecified)

>  <Qualitative label>
inactive

$$$$
>  <Molecule>
C/C(=C1\N=C(c2ccccc2)OC1=O)c1ccccc1

>  <Qualitative label>
inactive

$$$$
>  <Molecule>
CN(C)c1ccc(/C=C(\C#N)c2nc(-c3cc4ccccc4oc3=O)cs2)cc1

>  <Qualitative label>
inactive

$$$$
>  <Molecule>
Cc1ccc(S(=O)(=O)[N-]C2C(=O)c3ccccc3C(=O)C2[n+]2cccc(C(N)=O)c2)cc1 (stereo unspecified)

>  <Qualitative label>
inactive

$$$$
>  <Molecule>
O=c1cc(-c2ccccc2)c2ccc(O)c(CN(CCCl)CCCl)c2o1

>  <Qualitative label>
inactive

$$$$
>  <Molecule>
COc1cc([C@@H]2c3cc4c(cc3[C@@H](c3c(O)cc(O)c5c3O[C@H](c3ccc(O)c(O)c3)[C@@H](O)C5)[C@H]3COC(=O)[C@H]23)OCO4)cc(OC)c1O

>  <Qualitative label>
inactive

$$$$
>  <Molecule>
O=C1CSC(c2cccc(Oc3ccccc3)c2)N1c1cc(Cl)ccc1Cl (stereo unspecified)

>  <Qualitative label>
inactive

$$$$
>  <Molecule>
Cc1ccc(S(=O)(=O)n2ccc(-c3ccc4ccn(S(=O)(=O)c5ccc(C)cc5)c4c3)c2)cc1

>  <Qualitative label>
inactive

$$$$
>  <Molecule>
COC(C)(C)C(O)C(O)C[C@H](C)C1CC=C2C1(C)CCC1[C@@]3(C)CCC(OC(C)=O)C(C)(C)C3CC(OC3OC(COC(C)=O)C(O)C(O)C3O)[C@@]21C (stereo partly specified)

>  <Qualitative label>
inactive

$$$$
>  <Molecule>
CN(/N=C/c1ccc(C(=O)O)cc1)C1=NCCCCN1

>  <Qualitative label>
inactive

$$$$
>  <Molecule>
COC(=O)c1cc(C)n(NC(=O)OC(C)(C)C)c1C

>  <Qualitative label>
inactive

$$$$
>  <Molecule>
CC(=O)Nc1ccc(-c2nc3ccccc3s2)cc1I

>  <Qualitative label>
inactive

$$$$
>  <Molecule>
COC1=CC(=O)c2ccc(C(C)C)cc2C1(C)C1=NC(C)(C)CO1 (stereo unspecified)

>  <Qualitative label>
inactive

$$$$
>  <Molecule>
O=C(O)CN(c1ccccc1)S(=O)(=O)c1ccc([N+](=O)[O-])cc1

>  <Qualitative label>
inactive

$$$$
>  <Molecule>
c1ccc2c(c1)Oc1cccc3cccc-2c13

>  <Qualitative label>
inactive

$$$$
>  <Molecule>
O=P(c1ccccc1)(c1ccccc1)c1ccc2c(c1)OCCOCCOCCOCCO2

>  <Qualitative label>
inactive

$$$$
>  <Molecule>
O=c1c2ccc(Cl)cc2oc2c(CSc3ccccc3)cccc12

>  <Qualitative label>
inactive

$$$$
>  <Molecule>
O=C1CC(CC(OCc2ccccc2)C(COCc2ccccc2)OCc2ccccc2)CC(=O)N1 (stereo unspecified)

>  <Qualitative label>
inactive

$$$$
>  <Molecule>
O=C(O)CCC(O)=C1S(=O)(=O)OCCOS1(=O)=O

>  <Qualitative label>
inactive

$$$$
>  <Molecule>
COc1ccc(Cc2nccc3cc(OC)c(OC)cc23)cc1

>  <Qualitative label>
inactive

$$$$
>  <Molecule>
Cc1nc(N/N=C/c2ccccc2Cl)[nH]c(=O)c1CCO

>  <Qualitative label>
inactive

$$$$
>  <Molecule>
COC(=O)c1ccc(CCc2cc(O)ccc2O)cc1

>  <Qualitative label>
active

$$$$
>  <Molecule>
COc1ccc(-n2c(=O)n(-c3ccccc3)c(=O)n2-c2ccc(OC)cc2)cc1

>  <Qualitative label>
inactive

$$$$
>  <Molecule>
CNC(=O)OCc1nc(N=[N+]=[N-])n(C)c1COC(=O)NC

>  <Qualitative label>
inactive

$$$$

###

# System: UACC-62
# Assay procedure: NCI tumour cell line growth inhibition, 48 h
The source made the active and inactive calls. Rule as the data show it: active = GI50 up to about 1.1 µM and inactive = higher.
Labels: class 1 for active, class 0 for inactive

>  <Compound>
CCOC(=O)c1cc2cc(Cc3ccc4[nH]c(C(=O)OCC)cc4c3)ccc2[nH]1

>  <Target under test>
UACC-62

>  <Qualitative label>
class 0

$$$$
>  <Compound>
O=C1CC(=O)NC(NN2C(=O)CSC2C(=O)c2ccco2)=N1 (stereo not drawn)

>  <Target under test>
UACC-62

>  <Qualitative label>
class 0

$$$$
>  <Compound>
Cc1noc(NS(=O)(=O)c2ccc(NC(=O)c3ccc4nc5ccccc5c(Nc5ccc(S(=O)(=O)Nc6onc(C)c6C)cc5)c4c3)cc2)c1C

>  <Target under test>
UACC-62

>  <Qualitative label>
class 0

$$$$
>  <Compound>
C/C(=N\NC(=S)N1CCCC1)c1nc2cccnc2[nH]1

>  <Target under test>
UACC-62

>  <Qualitative label>
class 1

$$$$
>  <Compound>
O=C(Cn1c(-c2ccccc2)cc2ccccc21)N1CCCC1

>  <Target under test>
UACC-62

>  <Qualitative label>
class 0

$$$$
>  <Compound>
COc1cc(C=O)cc(/C=N/N=C/c2ccccc2O)c1O

>  <Target under test>
UACC-62

>  <Qualitative label>
class 0

$$$$
>  <Compound>
COc1cc(/C=N/n2c(C)n[nH]c2=O)cc(OC)c1OC

>  <Target under test>
UACC-62

>  <Qualitative label>
class 0

$$$$
>  <Compound>
Cc1nc2c(n1CC(C)C)C(=O)c1ccccc1C2=O

>  <Target under test>
UACC-62

>  <Qualitative label>
class 0

$$$$
>  <Compound>
CCCCCCCCCCCCCCCC[N+](C)(C)Cc1ccc(C[N+](C)(C)CCCCCCCCCCCCCCCC)cc1

>  <Target under test>
UACC-62

>  <Qualitative label>
class 0

$$$$
>  <Compound>
CN(/N=C/c1ccc(C(=O)O)cc1)C1=NCCCCN1

>  <Target under test>
UACC-62

>  <Qualitative label>
class 0

$$$$
>  <Compound>
CCOC(=O)CCc1ccc(NC(=O)/C=C/c2ccc([N+](=O)[O-])o2)cc1

>  <Target under test>
UACC-62

>  <Qualitative label>
class 0

$$$$
>  <Compound>
O=c1ncccn1[C@@H]1O[C@H](CO)[C@H](O)C1O (stereo partly drawn)

>  <Target under test>
UACC-62

>  <Qualitative label>
class 0

$$$$
>  <Compound>
O=c1oc2cc(O)ccc2c(O)c1C(c1ccccc1F)c1c(O)c2ccc(O)cc2oc1=O

>  <Target under test>
UACC-62

>  <Qualitative label>
class 0

$$$$
>  <Compound>
COc1cc2ccc(CC(N)=O)cc2cc1OC

>  <Target under test>
UACC-62

>  <Qualitative label>
class 0

$$$$
>  <Compound>
C/C=C(/I)CBr

>  <Target under test>
UACC-62

>  <Qualitative label>
class 0

$$$$
>  <Compound>
COc1cc(CCC(=O)NS(=O)(=O)c2ccccc2)cc(OC)c1OC

>  <Target under test>
UACC-62

>  <Qualitative label>
class 0

$$$$
>  <Compound>
O=C1/C(=C/c2ccc(Br)s2)NC(=S)N1c1ccccc1

>  <Target under test>
UACC-62

>  <Qualitative label>
class 0

$$$$
>  <Compound>
Nc1n[nH]c(N)n1

>  <Target under test>
UACC-62

>  <Qualitative label>
class 0

$$$$
>  <Compound>
Fc1ccc(Oc2nc3ccc(C(F)(F)F)cc3nc2-c2ccccc2)cc1

>  <Target under test>
UACC-62

>  <Qualitative label>
class 0

$$$$
>  <Compound>
C=CCC1=C2CCCCC2CCC1=O (stereo not drawn)

>  <Target under test>
UACC-62

>  <Qualitative label>
class 0

$$$$
>  <Compound>
CCN(CC)C(=O)c1cc(OC(C)C)ccc1-c1c(C)cc(OC(C)C)c(OC)c1OC

>  <Target under test>
UACC-62

>  <Qualitative label>
class 0

$$$$
>  <Compound>
Nc1ccn(CCOC(c2ccccc2)P(=O)(O)O)c(=O)n1 (stereo not drawn)

>  <Target under test>
UACC-62

>  <Qualitative label>
class 0

$$$$
>  <Compound>
COc1ccccc1C(N)c1ccccc1 (stereo not drawn)

>  <Target under test>
UACC-62

>  <Qualitative label>
class 0

$$$$
>  <Compound>
CC(=O)NC(CCCCNC(=O)N(C)N=O)C(=O)NCc1ccccc1 (stereo not drawn)

>  <Target under test>
UACC-62

>  <Qualitative label>
class 0

$$$$
>  <Compound>
O=[N+]([O-])c1ccc(-n2nc3ccc4c(no[n+]4[O-])c3n2)cc1

>  <Target under test>
UACC-62

>  <Qualitative label>
class 0

$$$$
>  <Compound>
Cc1nc2ccc(S(=O)(=O)Nc3ccccc3Cl)cc2c(=O)n1NC(=O)CNc1ccccc1Cl

>  <Target under test>
UACC-62

>  <Qualitative label>
class 0

$$$$
>  <Compound>
CCN(CC)c1ccc2cc(-c3nc4ccccc4n3C)c(=O)oc2c1

>  <Target under test>
UACC-62

>  <Qualitative label>
class 1

$$$$
>  <Compound>
C=C(C)C1CC=C(C)C(O)([C@@]2(O)C[C@H](C(=C)C)CC=C2C)C1 (stereo partly drawn)

>  <Target under test>
UACC-62

>  <Qualitative label>
class 0

$$$$
>  <Compound>
CC(N/N=C(\S)N1CCN(c2ccccn2)CC1)c1cccc[n+]1[O-] (stereo not drawn)

>  <Target under test>
UACC-62

>  <Qualitative label>
class 0

$$$$
>  <Compound>
COc1cccc(Nc2n[nH]c(NS(=O)(=O)c3cc(C)c(Cl)cc3S)n2)c1

>  <Target under test>
UACC-62

>  <Qualitative label>
class 0

$$$$
>  <Compound>
COC(=O)C1=C(C(=O)OC)N(C(C)C)[C@H]2C(C(=O)OC)=C(C(=O)OC)N(C(C)C)[C@@H]12

>  <Target under test>
UACC-62

>  <Qualitative label>
class 0

$$$$
>  <Compound>
Cc1cc2c(ccc[n+]2[O-])[n+]([O-])c1

>  <Target under test>
UACC-62

>  <Qualitative label>
class 0

$$$$
>  <Compound>
COC(C)(C)C(O)C(O)C[C@H](C)C1CC=C2C1(C)CCC1[C@@]3(C)CCC(OC(C)=O)C(C)(C)C3CC(OC3OC(COC(C)=O)C(O)C(O)C3O)[C@@]21C (stereo partly drawn)

>  <Target under test>
UACC-62

>  <Qualitative label>
class 0

$$$$
>  <Compound>
CC(=O)[C@H]1CCC2[C@@H]3CC=C4C(O)C(OS(=O)(=O)O)CC[C@]4(C)C3CC[C@@]21C (stereo partly drawn)

>  <Target under test>
UACC-62

>  <Qualitative label>
class 0

$$$$
>  <Compound>
O=c1ccc2cc3ccc4cccc5ccc(c2o1)c3c45

>  <Target under test>
UACC-62

>  <Qualitative label>
class 0

$$$$
>  <Compound>
CS(=O)(=O)OCCN1CCN(C(=O)c2cccc3c(Nc4ccc(S(=O)(=O)N=C(N)N)cc4)c4ccccc4nc23)CC1

>  <Target under test>
UACC-62

>  <Qualitative label>
class 0

$$$$
>  <Compound>
O=c1cc(-c2ccccc2)c2ccc(O)c(CN(CCCl)CCCl)c2o1

>  <Target under test>
UACC-62

>  <Qualitative label>
class 0

$$$$
>  <Compound>
O=C(CC1(O)C(=O)Nc2c(Cl)ccc(Cl)c21)c1ccc2ccccc2c1 (stereo not drawn)

>  <Target under test>
UACC-62

>  <Qualitative label>
class 0

$$$$
>  <Compound>
COc1ccc(/C=N/c2c(O)ccc3ccccc23)cc1OC

>  <Target under test>
UACC-62

>  <Qualitative label>
class 0

$$$$
>  <Compound>
N#Cc1nc2cc(Cl)ccc2nc1N1CCN(c2ccc([N+](=O)[O-])cc2)CC1

>  <Target under test>
UACC-62

>  <Qualitative label>
class 0

$$$$
>  <Compound>
O=C1c2ccccc2C(=O)c2cc3c(cc21)C[S+]([O-])C3

>  <Target under test>
UACC-62

>  <Qualitative label>
class 0

$$$$
>  <Compound>
CC1C(=O)N(c2ccccc2)NC12CCCc1ccccc12 (stereo not drawn)

>  <Target under test>
UACC-62

>  <Qualitative label>
class 0

$$$$
>  <Compound>
Cc1ccc2c(c1)Sc1ccc(/N=N/N(C)C)cc1N2C

>  <Target under test>
UACC-62

>  <Qualitative label>
class 0

$$$$
